# credit: patent US20240059769A1

Biological target: T1, recombinant human IL-13 (human, UniProt P35225 35-146)
T1 construct: also called rh-IL-13; hIL-13
T1 sequence (P35225 35-146 limits assumed): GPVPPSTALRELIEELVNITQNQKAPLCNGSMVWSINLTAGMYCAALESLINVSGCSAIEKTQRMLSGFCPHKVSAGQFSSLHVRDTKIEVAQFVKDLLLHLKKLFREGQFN
Assay: SPR
MEASURE: pKd
In simple prose, pKd is minus the logarithm base ten of a concentration in moles per litre.

INSERT INTO results (binder, reported_measurement) VALUES
  ('BDG38.092 (antibody, V domains shown, IgG1) VH: QMQLVESGGGVVQPGRSLTLSCAASGFEFRTYGMHWVRQAPGKGLEWLAVIWDDGSNTHYADSVKGRFTITRDNSKNTLNLQMNSLRVEDTAVYYCVRAPQWYLTAEAFDLWGQGTMVTVSS VL: SYVLTQPPSVSVAPGETATITCGGNLIGARLVHWYQQKPGQAPVLVIYDDSDRPSRIPERFSGSNIGNTATLTISDVEEGDEADYYCQVWDYYSDHMVFGGGTKLTVL', 11.02),
  ('BDG38.107 (antibody, V domains shown, IgG1) VH: QMQLVESGGGVVQPGRSLTLSCAASGFEFRTYGMHWVRQAPGKGLEWVGVIWYDGSNTHYADSVKGRFTITRDNSKNTLNLQMNSLRAEDTAVYYCVRAPQWYLTAEAFDLWGQGTMVTVSS VL: SYILTQPPSVSVAPGQTATITCGGNLIGARLVHWYQQKPGQAPVLVIYDDSDRPSRIPERFSGSNIGNTATLTIERVEEGDEADYYCQVWDYSSDSYVFGGGTKLTVL', 11.56);

Turning now to a further record.
Query: I'd like to know its pKd. The binder in question is BDG38.110 (antibody, V domains shown, IgG1) VH: QMQLVESGGGVVQPGRSLRLSCAASGFEFRTYGMHWVRQAPGKGLEWVAVIWDDGSNTHYADSVKGRFTITRDNSKNTLNLQMNSLRAEDTAVYYCVRAPQWYLTAEAFDLWGQGTMVTVSS VL: SYILTQPPSVSVAPGETTRITCGGNLIGAKLVHWYQQKPGQAPVLVIYDDSDRPSRIPERFSGSNIGNTATLTIEDVEAGDEADYYCQVWDYSSNHMVFGGGTKLTVL
Result: 10.13
